Would you kindly list ED50 for each of these compounds?
- test system: gastric histamine H2 receptors (Rattus norvegicus, UniProt P25102)
- Construct: the gastric secretion is measured by perfusion of a physiological solution at a constant speed in the stomach of the animal; from tissue; host or cells: stomach of the living atropinized rat (in vivo, perfused stomach)
- Sequence (P25102 whole entry, the tested form may be a part): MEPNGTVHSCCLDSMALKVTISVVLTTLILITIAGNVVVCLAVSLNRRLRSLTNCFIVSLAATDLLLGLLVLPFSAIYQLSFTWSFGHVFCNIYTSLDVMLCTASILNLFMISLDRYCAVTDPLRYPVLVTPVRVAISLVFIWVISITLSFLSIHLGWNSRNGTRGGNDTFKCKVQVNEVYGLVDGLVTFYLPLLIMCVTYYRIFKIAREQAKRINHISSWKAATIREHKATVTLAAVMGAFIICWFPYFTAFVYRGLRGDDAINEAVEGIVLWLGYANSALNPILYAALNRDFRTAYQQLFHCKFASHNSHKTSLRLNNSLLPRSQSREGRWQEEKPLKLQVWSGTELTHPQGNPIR
- method: Antagonism of gastric hypersecretion induced by histamine in the atropinized rat (Ghosh and Schild modified according to Black et al.)
- Format: in vivo
- condition context: intravenous, single dose, histamine i.v. infusion 15 mcmol/kg/hour, read-out: ID50 (dose which inhibits by 50% the gastric hypersecretion induced by histamine)

In plain terms, `CNC(=S)Nc1cccc(C(=O)NCCSCc2ccc(CN(C)C)o2)c1` has a documented ED50 of 0.45 µmol/kg

In plain terms, `CNC(=C[N+](=O)[O-])Nc1cccc(C(=O)NCCSCc2ccc(CN(C)C)o2)c1` has a documented ED50 of 0.23 µmol/kg

In plain terms, `CNC(=NC#N)Nc1cccc(C(=O)NCCSCc2ccc(CN(C)C)o2)c1` has a documented ED50 of 0.5 µmol/kg

In plain terms, `CNC(=O)Nc1cccc(C(=O)NCCSCc2ccc(CN(C)C)o2)c1` has a documented ED50 of 1.53 µmol/kg
